All figures here come from patent US20200095340A1.

Biological target: biotinylated human DLL3 protein expressed as a human IgG1 fusion protein (human) (UniProt Q9NYJ7)
Sequence (Q9NYJ7 other isoform, or with tags, fused parts or gaps): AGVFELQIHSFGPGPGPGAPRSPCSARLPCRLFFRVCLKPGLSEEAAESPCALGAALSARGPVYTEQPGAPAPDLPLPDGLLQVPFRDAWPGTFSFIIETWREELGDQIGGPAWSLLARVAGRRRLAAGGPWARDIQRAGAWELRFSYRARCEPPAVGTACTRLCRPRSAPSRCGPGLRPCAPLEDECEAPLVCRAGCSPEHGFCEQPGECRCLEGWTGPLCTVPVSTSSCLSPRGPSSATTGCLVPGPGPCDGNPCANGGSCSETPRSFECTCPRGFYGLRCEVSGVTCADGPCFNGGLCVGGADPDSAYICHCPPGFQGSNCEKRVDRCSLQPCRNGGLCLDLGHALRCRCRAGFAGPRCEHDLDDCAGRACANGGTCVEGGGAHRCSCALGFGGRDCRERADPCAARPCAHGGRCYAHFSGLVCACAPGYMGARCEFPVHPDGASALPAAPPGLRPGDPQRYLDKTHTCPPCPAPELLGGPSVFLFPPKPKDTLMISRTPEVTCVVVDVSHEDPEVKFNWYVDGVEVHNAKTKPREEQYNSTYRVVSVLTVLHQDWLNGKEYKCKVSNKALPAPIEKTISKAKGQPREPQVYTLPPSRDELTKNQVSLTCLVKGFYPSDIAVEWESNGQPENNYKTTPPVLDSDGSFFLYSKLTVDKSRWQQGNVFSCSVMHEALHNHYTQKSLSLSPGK
Test: Octet BLI; biotinylated huDLL3-IgG1 fusion on streptavidin tips; single 50 nM; conditioned medium
Measurement label: pKd
Interpret pKd as the negative base-10 log of the concentration measured in mol/L.

stdin: // query pKd value for entry anti-DLL3 trispecific protein 4F08 (protein, part only; not given: anti-CD3 and anti-albumin domains, part only) chain, part: EVQLVESGGGLVQPGGSLTLSCAASGSKVSFLSMAWYRQAPGKKRELVAGISADGSTAYIDSVKGRFTISRDNAKNSVYLQMNSLRAEDTAVYYCYAYRWRTRYTYWGQGTLVTVSSGGGGSGGGSGGGGSGGGSHHHHHH
stdout: 8.05

stdin: Query (binder): anti-DLL3 trispecific protein 1F05 (protein, part only; not given: CD3 fragment and albumin sdAb, part only) chain, part: EVQLVESGGGLVQPGGSLTLSCVASGSTRSINAMGWYRRAPGKQRELVAGISSDGSKVYADSVKGRFTISRDNAKNSVYLQMNSLRAEDTAVYYCYYFHTVSGSSMRYWGQGTLVTVSSGGGGSGGGSGGGGSGGGSHHHHHH ; field requested: pKd
stdout: 8.24

stdin: Give the measured pKd of anti-DLL3 trispecific protein 3G09 (protein, part only; not given: CD3 fragment and albumin sdAb, part only) chain, part: EVQLVESGGGLVQPGGSLTLSCAASGSSVSVLSMAWYRQAPGKKRELVAGISADGSTDYIGSVKGRFTISRDNAKNSVYLQMNSLRAEDTAVYYCYAYRWTTRTTYWGQGTLVTVSSGGGGSGGGSGGGGSGGGSHHHHHH .
stdout: 8.14

stdin: Can you share its pKd? I mean this binder: anti-DLL3 trispecific protein 4G05 (protein, part only; not given: CD3 fragment and albumin sdAb, part only) chain, part: EVQLVESGGGLVQPGGSLTLSCAASGSSVSILSMAWYRQAPGKKRELVAGISADGSTIYIDSVKGRFTISRDNAKNSVYLQMNSLRAEDTAVYYCYAYRWHTRYTYWGQGTLVTVSSGGGGSGGGSGGGGSGGGSHHHHHH
stdout: 8.01

***
stdin: Need pKd, item anti-DLL3 trispecific protein 3H011 (protein, part only; not given: CD3 fragment and albumin sdAb, part only) chain, part: EVQLVESGGGLVQPGGSLTLSCAASGSSVKFLSMAWYRQAPGKKRELVAGISADGSTVYIDSVKGRFTISRDNAKNSVYLQMNSLRAEDTAVYYCYAYRWPTRYTYWGQGTLVTVSSGGGGSGGGSGGGGSGGGSHHHHHH
stdout: 8.57

stdin: Recorded pKd of anti-DLL3 trispecific protein 4F011 (protein, part only; not given: anti-CD3 and anti-albumin domains, part only) chain, part: EVQLVESGGGLVQPGGSLTLSCAASGSKVSFLSMAWYRQAPGKKRELVAGISADGSKDYIDSVKGRFTISRDNAKNSVYLQMNSLRAEDTAVYYCYAYRWTTRYTYWGQGTLVTVSSGGGGSGGGSGGGGSGGGSHHHHHH , please.
stdout: 8.09

stdin: Give its pKd value. Item: anti-DLL3 trispecific protein 2A06 (protein, part only; not given: CD3 binder and albumin binder, part only) chain, part: EVQLVESGGGLVQPGGSLTLSCVASGSTSSRNAMGWYRRAPGKQRELVAGISSDGSKVTADSVKGRFTISRDNAKNSVYLQMNSLRAEDTAVYYCYYFRTRSGSSMRYWGQGTLVTVSSGGGGSGGGSGGGGSGGGSHHHHHH
stdout: 8.05
